Tested on: SN12C renal
Assay: NCI tumour cell line growth inhibition, 48 h
observation_type: TGI

Clc1ccc(Cl)c(SCCCN2CCNCC2)c1: 37.8 µM
O=C(CCc1cccc(O)c1)NCCCNC(=O)CCc1cccc(O)c1: > 100 µM
CC(C)(C)C(=O)C(Cc1ccccc1)C(=O)C(C)(C)C: > 100 µM
Nc1nc(N)nc(CCCc2nc(N)nc(N)n2)n1: > 100 µM
NS(=O)(=O)c1ccc(NC(NC(=O)C(C(F)(F)F)C(F)(F)F)(C(F)(F)F)C(F)(F)F)cc1: > 100 µM

State its TGI for this molecule: COC(C(=O)[C@@H](O)[C@@H](C)O)[C@@H]1Cc2cc3cc(O[C@H]4C[C@@H](O[C@H]5C[C@@H](O)[C@H](O)C(C)O5)[C@H](O)C(C)O4)c(C)c(O)c3c(O)c2C(=O)[C@H]1O[C@H]1C[C@@H](O[C@H]2C[C@@H](O[C@H]3C[C@@H](O)[C@H](OC)C(C)O3)[C@@H](O)C(C)O2)[C@H](O)C(C)O1 (stereo partly drawn)
> 33.3 µM

Look up and state reported TGI for "O=C(OCc1ccc2c(Cl)cc(Cl)c(O)c2n1)N1CCN(C(=O)c2cc3cc(F)ccc3[nH]2)CC1"
> 100 µM

Please indicate TGI recorded for "O=c1nc(-c2ccccc2)cc(-c2ccccc2O)[nH]1"
> 100 µM

###

Test system: MDA-MB-231 breast
Assay: NCI tumour cell line growth inhibition, 48 h
observation_type: TGI

O=C(Nc1ccc(Cl)c(Cl)c1)Nc1ccccc1O: 34.2 µM
C[C@]1(S(=O)(=O)c2ccccc2)C[C@H]2N(Cc3ccccc3)[C@@H]1CCC21OCCO1: > 100 µM
O=C(N/N=C/c1c(Cl)cccc1Cl)c1ccc(C(F)(F)F)nc1Nc1cccc(C(F)(F)F)c1: 11.1 µM
COc1c(O)c(O)cc2c1-c1ccc(OC)c(=O)cc1C(NC(C)=O)CC2 (stereo unspecified): > 59.4 µM
COc1cc(CNc2nc3cc(C(F)(F)F)ccc3nc2-c2ccccc2)cc(OC)c1OC: 67.5 µM

Here is another compound to look at.
Using known records, supply TGI for "COc1ccc2c3c(Nc4ccc(/C(C)=N/O)cc4)[nH]c4ccccc4c-3c(N=O)c2c1"
24.3 µM

###

Test system: MDA-MB-435
Assay: NCI tumour cell line growth inhibition, 48 h
Let's look at some compounds and their measured TGI.

Cc1ccc(Nc2nnc(-c3ccc4c(c3)OCO4)o2)c(C)c1: > 100 µM
Nc1ccc2[nH]cc(CCC(=O)O)c2c1: > 100 µM
CC(C)(C)c1ccc(OCC(=O)O)c(Cl)c1: > 100 µM
COc1cc(CNc2nc3cc(C(F)(F)F)ccc3nc2-c2ccccc2)cc(OC)c1OC: > 100 µM
COc1ccc(N=Nc2c3c(c(O)c4ccccc24)CCC(C)(C)O3)cc1: 32.4 µM

Return value of TGI for input "O=C1C(Cl)=C(Nc2ccccc2O)C(=O)N1Cc1ccccc1" , no commentary.
37.4 µM

Give the reported TGI for this compound. CC12CC1C(c1cccc([N+](=O)[O-])c1)(c1cccc([N+](=O)[O-])c1)N=N2 (centres undefined)
> 100 µM

Kindly indicate its recorded TGI. Item: "COc1ccc(/C=N/N2C(=O)c3c(N)c(C#N)c(-c4ccccc4)c(-c4ccccc4)c3C2=O)cc1"
> 100 µM

# return recorded TGI for entry O=C1CC(Sc2nc3ccc(I)cc3c(=O)n2Cc2ccccc2)C(=O)NN1 (centres undefined)
33.9 µM
